Quick list: normalized growth per entry.
Assay overview: chemical genetic growth profiling, strain panel (AID 1159580);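 note: tested at 20 µM; growth read once vehicle control cultures reached saturation at 30 °C; 1 = growth at the plate median or of vehicle wells; lower values mean less growth of the strain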
Condition label: S. cerevisiae deletion strains, growth OD, locus YJL187C, strain SWE1, active compounds read low
Hit rate of the full screen: of about 5,500 compounds, about 2,000 (36%) were called active. Inconclusive results (about 18%) are left out. The list shows a part of the results.

Molecule | normalized growth
CN[C@@H]1[C@H](OC2[C@H](O[C@H]3[C@H](O)[C@@H](O)[C@H](N=C(N)N)[C@@H](O)[C@@H]3N=C(N)N)O[C@@H](C)[C@]2(O)C=O)O[C@@H](CO)[C@H](O)[C@H]1O (stereo not given in full) | 1.01
CC(CCC(=O)O)[C@H]1CCC2C3C[C@H](O)[C@@H]4C[C@H](O)CC[C@]4(C)C3CC[C@@]21C (stereo not given in full) | 0.993
CC(CCC(=O)O)[C@H]1CCC2C3C(C[C@H](O)[C@@]21C)[C@@]1(C)CC[C@@H](O)C[C@H]1C[C@H]3O (stereo not given in full) | 1.01
CC12CC3CC(C)(C1)CC(N)(C3)C2 | 0.992
CNC(=O)Oc1ccc2c(c1)[C@]1(C)CCN(C)[C@@H]1N2C | 1.01
CC(CCC(=O)O)[C@H]1CCC2C3CC[C@@H]4C[C@H](O)CC[C@]4(C)C3CC[C@@]21C (stereo not given in full) | 0.979
CC(C)CCCC(C)C1CCC2C3CC[C@H]4CCCC[C@]4(C)C3CC[C@]12C (stereo not given in full) | 1.02
COc1ccc(-n2c(-c3ccc(C)cc3)csc2=N)cc1 | 0.985
CC(CCC(=O)O)[C@H]1CCC2C3CC[C@@H]4CCCC[C@]4(C)C3CC[C@@]21C (stereo not given in full) | 1.01
CCC(=O)c1c(C)c(C)c(C)c(C)c1C | 0.995

* * *

Assay overview: chemical genetic growth profiling, strain panel (AID 1159580);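 note: tested at 20 µM; growth read once vehicle control cultures reached saturation at 30 °C; 1 = growth at the plate median or of vehicle wells; lower values mean less growth of the strain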
Condition label: S. cerevisiae deletion strains, growth OD, locus YHR030C, strain SLT2, active compounds read low
Hit rate of the full screen: of about 5,500 compounds, about 2,000 (36%) were called active. Another 18% or so got no clear call; they are omitted. The list shows a part of the results.
Quantity measured: normalized growth

Compound | Measured number
NC(N)=NCCC[C@@H](NC(=O)[C@@H](N)Cc1ccc(O)cc1)C(=O)O | 1.01
Cc1nc2ccccn2c(=O)c1CCN1CCC(C(=O)c2ccc(F)cc2)CC1 | 1.02
Nc1cc(C(Cl)=C(Cl)Cl)c(S(N)(=O)=O)cc1S(N)(=O)=O | 0.977
O=C(NCc1nc(-c2ccc(C(F)(F)F)cc2)no1)Nc1ccc(F)cc1F | 1.07
NC(N)=NCCCC(NC(=O)C(N)Cc1ccc(O)cc1)C(=O)O (stereo unspecified) | 0.994
c1ccc2nc(N3CCNCC3)ccc2c1 | 0.982
COc1ccc(C(=O)NCc2csc3ccc(Cl)cc23)cc1OC | 1.03
CC(=O)Nc1ccc(S(=O)(=O)Nc2ncccn2)cc1 | 1.08
O=C(NNc1c(Cl)cc(Cl)cc1Cl)NC(=O)c1ccccc1F | 0.905
CNC(=O)n1nc(C)c(Cc2csc3ccc(Cl)cc23)c1C | 0.935
Cc1cc(O)c(C)c2c1C(=O)Oc1c(C)c(O)c(C(=O)O)c(C)c1O2 | 0.989

Where do the numbers come from? From PubChem BioAssay AID1159580.
